Assay: method code SF, from Hansch, C. & Leo, A. (1987). Log P database [Dataset]. Pomona College Medicinal Chemistry Project.
Metric name: logP
I only need the number, thanks.

// below: answered compounds
In [3]: df
Out[3]:
                                   compound  reported
0  C=C(C)C1Cc2c(ccc3c2OC2COc4cc(OC)c(OC)cc4C2C3=O)O1 (stereo not drawn)       4.1
1             C=CCN(C)/N=N/c1ccc(C(N)=O)cc1      2.09
2                          CC(=O)OCC(F)(F)F      1.18
3                    COC(=O)CNC(=O)c1ccccc1      0.82
4               CC(=O)Nc1ccc(S(=O)(=O)F)cc1      2.17
5             CCC1=Nc2cc(Cl)ccc2S(=O)(=O)N1      1.61
6                       NS(=O)(=O)Nc1ccccc1       0.4

--- query ---
Challenge: logP lookup needed for `CC1=NS(=O)(=O)c2ccc(C(F)(F)F)cc2N1` , thanks.
Response given: 1.59
